- procedure-text: yeast display, Sf9 membrane polyspecificity reagent, FACS + sequencing; frameworks hold sequencing errors
readout-label: polyreactivity (PSR sort gate)

Sample records with polyreactivity (PSR sort gate):
QVQLVESGGGLVQAGGSLRLSCAASGRIFTIYVMGWYRPAPGKERELVATITYSSGSTSYADSVKGRFTISRDNAKNTVYLQMNSLKPEDTAVYYCATDIHSVHNNRDKHDYDYWGQGTQVSVSS	low polyreactivity
QVQLVESGGGLVQAGGSLRLSCAASGSTFIVYAMGWYRQAPGKERELVAAITRGGSTNYADSVKGRFTISRDNAKNTVYLQMNSLKPEDTAVYYCAAPYAGWRDGGDYWGQGTQVTVSS	low polyreactivity
QVQLVESGGGLVQAGGSLRLSCSASGSTFFIYAMGWYRQAPWKERELVAAIRSGGTYYADSVKGRFTISRDNAKITVYLQMKSLKPEDTAVYYCAARTRGFRYYYWGQGTQVTVSS	high polyreactivity
QVQIVDSGRGLVQAGGSLRLSCAASGRTFIRYTMGWSRQATGKERELFAAITSGGITNYADSVKGRFTISRDNAKNPVYLQMNSLKPQDSALYYCAARHRWVTGSYGKYDYLGQGTQVTVSS	low polyreactivity
QVQLVESGGGLVQAGGSLRLSCAASGIIFYGYAMGWYRQAPGKERELVAAISRSGGSTYYADSVKGRFTISRDNAKNTVYLQMNSLKPEDTAVYYCAAVRIRPLRYYYWGQGTQVTVSS	high polyreactivity
QVQLVESGGGLVQAGGSLRLSCAASGITFWTYAMGWYRQAPGKERELVAAISKSGGSTYYADSVKGRFTISRDNAKYNVYLQLKSLKPEDTAVYYCAAKGLRYRDIDYDYWGQGTQVTVSW	low polyreactivity

The reported polyreactivity (PSR sort gate) of the sequence `QVQLVESGGGKVQEGGSLRLSCAASGRTLAPYAMGWYRQAPGKERELVAISTIGGTTYYADSVKGRFTISRDNAKNTVYLQMNSLKPEDTAVYYGAADGNSTGVYLDGGEGFAYDYWGQGTQVTVSS` was low polyreactivity

Recorded polyreactivity (PSR sort gate) (sequence `QVQLVESGGGLVQAGGSLRLSCAASGRTLKINAMGWYRQAPGKERELVARISAGRTYYADSVKGRFTISRDNAKNTVYLQMNSLKPEDTAVYYCARRTNRPPWGFEYWGQGTQVTVSS` ): high polyreactivity

polyreactivity (PSR sort gate) recorded for this sequence, `QVQLVESGGGLVQAGGSLRLSCAASGFTFEGYAMGWYRQAPGKERELVAAISSNGGRTYYADSVKGRFTISRDNAKNTVYLQMNSLKPEDTAVYYCNARRAYSGPDYDYYHGRRYDYWGQGTQVTVSS` , is low polyreactivity

polyreactivity (PSR sort gate) reported for this sequence `QVQLVESGGGLDQAGGSLRLSCAASGSLFARNTMGGYRQAPGKERELVATITARGGSTYADSVKGRFTISRDNAKNTVYLQMNSLKPEDTAVYYCNADYGLFSRATFYGYDYWGQGTQVTVSS` : low polyreactivity
